Target or test system: HiBiT-tagged BCL-xL (Homo sapiens, UniProt Q07817)
Construct: expressed in transfected cells; host or cells: NCI-H1650 (ATCC No. CRL-5883), engineered HiBiT cell line
Sequence (Q07817 whole entry): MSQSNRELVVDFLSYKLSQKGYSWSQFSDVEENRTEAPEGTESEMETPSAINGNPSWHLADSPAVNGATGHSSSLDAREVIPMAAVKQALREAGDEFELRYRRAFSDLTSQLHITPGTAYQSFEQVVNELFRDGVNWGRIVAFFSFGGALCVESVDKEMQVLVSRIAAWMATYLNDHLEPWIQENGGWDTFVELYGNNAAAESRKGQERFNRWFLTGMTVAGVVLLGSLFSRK
Assay explanation: NCI-H1650 BCL-xL protein levels, Nano-Glo HiBiT Lytic Detection
Format: cell-based
Test settings: NCI-H1650 expressing HiBiT-tagged BCL-xL, overnight incubation, read-out: Bcl-xl HIBIT NCIH1650 DC50
Property measured: DC50 (nM)

INSERT INTO results (smiles_str, property_measured, observed_result) VALUES
  ('Cc1ncsc1-c1ccc([C@H](C)NC(=O)[C@@H]2C[C@@H](O)CN2C(=O)[C@@H](NC(=O)COCCCCCCCCCCCN(C)CCOC23CC4(C)CC(C)(CC(Cn5ncc(-c6ccc(N7CCCc8c7nnc(Nc7nc9ccccc9s7)c8C)nc6C(=O)O)c5C)(C4)C2)C3)C(C)(C)C)cc1', 'DC50', 2);

P = Cc1ncsc1-c1ccc([C@H](C)NC(=O)[C@@H]2C[C@@H](O)CN2C(=O)[C@@H](NC(=O)CCCCCCCCN(C)CCOC23CC4(C)CC(C)(CC(Cn5ncc(-c6ccc(N7CCCc8c7nnc(Nc7nc9ccccc9s7)c8C)nc6C(=O)O)c5C)(C4)C2)C3)C(C)(C)C)cc1
Q = Cc1ncsc1-c1ccc([C@H](C)NC(=O)[C@@H]2C[C@@H](O)CN2C(=O)[C@@H](NC(=O)CCCCCCCNC(=O)c2nc(N3CCCc4c3nnc(Nc3nc5ccccc5s3)c4C)ccc2-c2cnn(CC34CC5(C)CC(C)(C3)CC(OCCN3CCCC3)(C5)C4)c2C)C(C)(C)C)cc1
Record comparison, field DC50: mark the lower of P and Q . Identify your selection by its label.
Q
(Q: 1 nM, P: 2 nM)

---

Target or test system: HiBiT-tagged BCL-xL (Homo sapiens)
Construct: expressed in transfected cells; host or cells: NCI-H1650 (ATCC No. CRL-5883), engineered HiBiT cell line
Assay explanation: NCI-H1650 BCL-xL protein levels, Nano-Glo HiBiT Lytic Detection
Type: cell-based
Test settings: NCI-H1650 expressing HiBiT-tagged BCL-xL, overnight incubation, read-out: Bcl-xl HIBIT NCIH1650 DC50
Property measured: DC50 (nM)
# value in nM; strip the unit string

Consider the compound Cc1ncsc1-c1ccc([C@H](C)NC(=O)[C@@H]2C[C@@H](O)CN2C(=O)[C@@H](NC(=O)CCCCCCCCCCC(=O)N2CCN(CC#Cc3ccc(OCCCc4sc(N5CCCc6c5nnc(Nc5nc7ccccc7s5)c6C)nc4C(=O)O)c(F)c3)CC2)C(C)(C)C)cc1 [Example 46] and give its recorded DC50.
2

---

Target or test system: Bcl-xL (Homo sapiens, UniProt Q07817)
Construct: Measured levels of Bcl-xL protein of HCT116 cells treated with the tested compounds; host or cells: HCT116
Assay explanation: HCT116 Bcl-xL degradation, capillary-based immunoassay (WES)
Format: cell-based
Test settings: HCT-116; HCT116, 10 nM, 24 h; % of untreated cells
Property measured: remaining activity at 0.01 µM (%)

A selection of reference data follows.
INSERT INTO measurements (compound, property_measured, observed_result) VALUES
  ('Cc1ncsc1-c1ccc([C@H](C)NC(=O)[C@@H]2C[C@@H](O)CN2C(=O)[C@@H](NC(=O)CCCCCCCN(C)CCOC23CC4(C)CC(C)(CC(Cn5ncc(-c6ccc(N7CCCc8c7nnc(Nc7nc9ccccc9s7)c8C)nc6C(=O)O)c5C)(C4)C2)C3)C(C)(C)C)cc1 [Example 6]', 'remaining activity at 0.01 µM', 69),
  ('Cc1c(Nc2nc3ccccc3s2)nnc2c1CCCN2c1nc(C(=O)O)c(CCCOc2ccc(C#CCN3CCN(C(=O)CCCCCCC(=O)NCCOCCNC(=O)COc4cccc5c4C(=O)N(C4CCC(=O)NC4=O)C5=O)CC3)cc2F)s1 (stereo not drawn) [Example 25]', 'remaining activity at 0.01 µM', 59),
  ('Cc1cc(N(CCCCCn2cc(COCCOCCOCCOCCNc3cccc4c3C(=O)N(C3CCC(=O)NC3=O)C4=O)nn2)c2ccc(-c3cnn(CC45CC6(C)CC(C)(C4)CC(OCCN(C)C)(C6)C5)c3C)c(C(=O)O)n2)nnc1Nc1nc2ccccc2s1 (stereo not drawn) [Example 153]', 'remaining activity at 0.01 µM', 59);

a = Cc1c(Nc2nc3ccccc3s2)nnc2c1CCCN2c1ccc(-c2cnn(CC34CC5(C)CC(C)(C3)CC(OCCN(C)CCCCCCCCOc3ccc6c(c3)C(=O)N(C3CCC(=O)NC3=O)C6=O)(C5)C4)c2C)c(C(=O)O)n1 (stereo not drawn) [Example 10]
b = Cc1ncsc1-c1ccc([C@H](C)NC(=O)[C@@H]2C[C@@H](O)CN2C(=O)[C@@H](NC(=O)CCCCCCCCCN(C)CCOC23CC4(C)CC(C)(CC(Cn5ncc(-c6ccc(N7CCCc8c7nnc(Nc7nc9ccccc9s7)c8C)nc6C(=O)O)c5C)(C4)C2)C3)C(C)(C)C)cc1 [Example 133]
c = Cc1ncsc1-c1ccc([C@H](C)NC(=O)[C@@H]2C[C@@H](O)CN2C(=O)[C@@H](NC(=O)CCCCCCN(C)CCOC23CC4(C)CC(C)(CC(Cn5ncc(-c6ccc(N7CCCc8c7nnc(Nc7nc9ccccc9s7)c8C)nc6C(=O)O)c5C)(C4)C2)C3)C(C)(C)C)cc1 [Example 3]
Please rank these compounds by remaining activity at 0.01 µM in descending order. Rank the items, then write their labels in that order.
b, a, c

---

Target or test system: HiBiT-tagged BCL-xL (Homo sapiens, UniProt Q07817)
Construct: expressed in transfected cells; host or cells: NCI-H1650 (ATCC No. CRL-5883), engineered HiBiT cell line
Assay explanation: NCI-H1650 BCL-xL protein levels, Nano-Glo HiBiT Lytic Detection
Type: cell-based
Test settings: NCI-H1650 expressing HiBiT-tagged BCL-xL, overnight incubation, read-out: Bcl-xl HIBIT NCIH1650 DC50
Property measured: DC50 (nM)
Form entry: value (nM) — number only.

Answer with the recorded DC50 of Cc1ncsc1-c1ccc([C@H](C)NC(=O)[C@@H]2C[C@@H](O)CN2C(=O)[C@@H](NC(=O)CCCCCCCCCCCCCCCCN(C)CCOC23CC4(C)CC(C)(CC(Cn5ncc(-c6ccc(N7CCCc8c7nnc(Nc7nc9ccccc9s7)c8C)nc6C(=O)O)c5C)(C4)C2)C3)C(C)(C)C)cc1 [Example 145] only.
2

---

Target or test system: Bcl-xL (Homo sapiens, UniProt Q07817)
Construct: Measured levels of Bcl-xL protein of HCT116 cells treated with the tested compounds; host or cells: HCT116
Assay explanation: HCT116 Bcl-xL degradation, capillary-based immunoassay (WES)
Assay type: cell-based
Test settings: HCT-116; HCT116, 10 nM, 24 h; % of untreated cells
Property measured: remaining activity at 0.01 µM (%)

Example entries begin here.
INSERT INTO results (compound, property_measured, observed_result) VALUES
  ('Cc1c(Nc2nc3ccccc3s2)nnc2c1CCCN2c1nc(C(=O)O)c(CCCOc2ccc(C#CCN3CCN(C(=O)CCCC(=O)NCCOCCNC(=O)COc4cccc5c4C(=O)N(C4CCC(=O)NC4=O)C5=O)CC3)cc2F)s1 (centres unmarked)', 'remaining activity at 0.01 µM', 63),
  ('Cc1ncsc1-c1ccc(CNC(=O)[C@@H]2CC(O)CN2C(=O)C(NC(=O)CCCCCCC(=O)N2CCN(CCOC34CC5(C)CC(C)(CC(Cn6ncc(-c7ccc(N8CCCc9c8nnc(Nc8nc%10ccccc%10s8)c9C)nc7C(=O)O)c6C)(C5)C3)C4)CC2)C(C)(C)C)cc1 (stereo in doubt)', 'remaining activity at 0.01 µM', 75),
  ('Cc1ncsc1-c1ccc([C@H](C)NC(=O)[C@@H]2CC(O)CN2C(=O)[C@@H](NC(=O)CCCCCCCCCCCCCCN(C)CCOC23CC4(C)CC(C)(CC(Cn5ncc(-c6ccc(N7CCCc8c7nnc(Nc7nc9ccccc9s7)c8C)nc6C(=O)O)c5C)(C4)C2)C3)C(C)(C)C)cc1 (stereo in doubt)', 'remaining activity at 0.01 µM', 52),
  ('Cc1c(Nc2nc3ccccc3s2)nnc2c1CCCN2c1ccc(-c2cnn(CC34CC5(C)CC(C)(C3)CC(OCCN(C)CCCCCCCCCC(=O)N3CCC(c6ccc7c(c6)CN(C6CCC(=O)NC6=O)C7=O)CC3)(C5)C4)c2C)c(C(=O)O)n1 (centres unmarked)', 'remaining activity at 0.01 µM', 101),
  ('Cc1cc(N(CCCCCn2cc(COCCOCCOCCNc3cccc4c3C(=O)N(C3CCC(=O)NC3=O)C4=O)nn2)c2ccc(-c3cnn(C[C@@]45C[C@]6(C)C[C@](C)(C4)C[C@](OCCN(C)C)(C6)C5)c3C)c(C(=O)O)n2)nnc1Nc1nc2ccccc2s1 (some centres unmarked)', 'remaining activity at 0.01 µM', 47);

P = Cc1ncsc1-c1ccc([C@H](C)NC(=O)C2C[C@@H](O)CN2C(=O)C(NC(=O)CCCCCN(C)CCOC23CC4(C)CC(C)(CC(Cn5ncc(-c6ccc(N7CCCc8c7nnc(Nc7nc9ccccc9s7)c8C)nc6C(=O)O)c5C)(C4)C2)C3)C(C)(C)C)cc1 (stereo in doubt)
Q = Cc1ncsc1-c1ccc([C@H](C)NC(=O)C2CC(O)CN2C(=O)C(NC(=O)CCCCCCCCCCCN2CCN(CC#Cc3ccc(OCCCc4sc(N5CCCc6c5nnc(Nc5nc7ccccc7s5)c6C)nc4C(=O)O)c(F)c3)CC2)C(C)(C)C)cc1 (stereo in doubt)
Of the two listed items, which has the higher remaining activity at 0.01 µM? First: P Second: Q Pick one and reply with its label.
P
(P: 54%, Q: 11%)
